- target-or-system: His-BIR3 (241-356, XIAP) (Homo sapiens)
- Construct: additions of His-BIR3 (241-356, XIAP), fluorescein labeled SMAC peptide
- Sequence (P98170 241-356): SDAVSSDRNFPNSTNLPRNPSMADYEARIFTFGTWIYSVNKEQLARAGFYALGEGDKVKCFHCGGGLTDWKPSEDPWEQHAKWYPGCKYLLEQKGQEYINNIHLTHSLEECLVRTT
- experimental-details: XIAP-BIR3/SMAC Homogeneous Time Resolved Fluorescence (HTRF) Assay
- condition-parameters: Table 4
property: IC50

Answered cases to consult:
CN[C@@H](C)C(=O)NC(C(=O)N1C[C@@H]2C[C@H]1C(=O)N[C@@H](Cc1ccc3ccccc3c1)C(=O)N[C@H](c1nc(=O)o[nH]1)Cc1ccc(cc1)OCc1cn(nn1)[C@H]1C[C@@H](C(=O)N[C@@H](Cc3ccc4ccccc4c3)C(=O)N[C@H](C(=O)O)Cc3ccc(cc3)OCc3cn2nn3)N(C(=O)[C@@H](NC(=O)[C@H](C)NC)C(C)(C)C)C1)C(C)(C)C (stereo partly drawn) :: < 10 nM
CN[C@@H](C)C(=O)N[C@H](C(=O)N1C[C@@H]2C[C@H]1C(=O)N[C@@H](Cc1ccc3ccccc3c1)C(=O)N[C@H](C(=O)O)Cc1ccc(cc1)OCc1cn(nn1)[C@H]1C[C@@H](C(=O)N[C@@H](Cc3ccc4ccccc4c3)C(=O)N[C@H](C(=O)O)Cc3ccc(cc3)OCc3cn2nn3)N(C(=O)[C@@H](NC(=O)[C@H](C)NC)C23CC4CC(CC(O)(C4)C2)C3)C1)C12CC3CC(CC(O)(C3)C1)C2 :: < 10 nM

Now look at this entry.
Request: IC50, test system His-BIR3 (241-356, XIAP) (Homo sapiens), entry CN[C@@H](C)C(=O)N[C@H](C(=O)N1C[C@@H]2C[C@H]1C(=O)N[C@@H](Cc1ccc3ccccc3c1)C(=O)N[C@H](C(=O)O)Cc1ccc(cc1)OCc1cn(nn1)[C@H]1C[C@@H](C(=O)N[C@@H](Cc3ccc4ccccc4c3)C(=O)N[C@H](C(=O)N[C@@H](C)C(=O)O)Cc3ccc(cc3)OCc3cn2nn3)N(C(=O)[C@@H](NC(=O)[C@H](C)NC)C(C)(C)C)C1)C(C)(C)C < 10 nM

----------
- target-or-system: N-His-Tb-BIR3(241-356, XIAP) (Homo sapiens, UniProt P98170)
- Sequence (P98170 241-356): as above
- experimental-details: XIAP-BIR3 SMAC Peptide Fluorescence Polarization Assay (FPA)
- Format: binding
pIC50: −log10 of the molar value.
property: pIC50

Answered cases to consult:
CN[C@@H](C)C(=O)N[C@H](C(=O)N1C[C@@H]2C[C@H]1C(=O)N[C@@H](Cc1ccc3ccccc3c1)C(=O)N[C@H](C(=O)NS(=O)(=O)C1CC1)Cc1ccc(cc1)OCc1cn(nn1)[C@H]1C[C@@H](C(=O)N[C@@H](Cc3ccc4ccccc4c3)C(=O)N[C@H](C(=O)NS(=O)(=O)C3CC3)Cc3ccc(cc3)OCc3cn2nn3)N(C(=O)[C@@H](NC(=O)[C@H](C)NC)C(C)(C)C)C1)C(C)(C)C [Compound 148] :: > 7.30
CN[C@@H](C)C(=O)N[C@H](C(=O)N1C[C@@H]2C[C@H]1C(=O)N[C@@H](Cc1ccc(-c3ccccc3)cc1)C(=O)N[C@H](C(=O)O)Cc1ccc(cc1)COc1cn(nn1)[C@H]1C[C@@H](C(=O)N[C@@H](Cc3ccc(-c4ccccc4)cc3)C(=O)N[C@H](C(=O)O)Cc3ccc(cc3)OCc3cn2nn3)N(C(=O)[C@@H](NC(=O)[C@H](C)NC)C(C)C)C1)C(C)C [Compound 114] :: > 7.30
CN[C@@H](C)C(=O)N[C@H](C(=O)N1C[C@@H]2C[C@H]1C(=O)N[C@@H](Cc1ccc3ccccc3c1)C(=O)N[C@H](C(=O)NS(=O)(=O)c1ccccc1)Cc1ccc(cc1)OCc1cn(nn1)[C@H]1C[C@@H](C(=O)N[C@@H](Cc3ccc4ccccc4c3)C(=O)N[C@H](C(=O)NS(=O)(=O)c3ccccc3)Cc3ccc(cc3)OCc3cn2nn3)N(C(=O)[C@@H](NC(=O)[C@H](C)NC)C(C)(C)C)C1)C(C)(C)C [Compound 1003] :: 7.00 to 7.30
CN[C@@H](C)C(=O)N[C@H](C(=O)N1C[C@@H]2C[C@H]1C(=O)N[C@@H](Cc1ccccc1)C(=O)N[C@@H](C(=O)O)Cc1ccc(cc1)NC(=O)CCc1cn(nn1)[C@H]1C[C@@H](C(=O)N[C@@H](Cc3ccccc3)C(=O)N[C@@H](C(=O)O)Cc3ccc(cc3)NC(=O)CCc3cn2nn3)N(C(=O)[C@@H](NC(=O)[C@H](C)NC)C(C)C)C1)C(C)C [Compound 102] :: 7.00 to 7.30

Request: pIC50, test system N-His-Tb-BIR3(241-356, XIAP) (Homo sapiens, UniProt P98170), entry CN[C@@H](C)C(=O)N[C@@H](C)C(=O)N1C[C@@H]2C[C@H]1C(=O)N[C@@H](Cc1ccccc1)C(=O)N[C@H](C(=O)O)Cc1ccc(cc1)OCc1cn(nn1)[C@H]1C[C@@H](C(=O)N[C@@H](Cc3ccccc3)C(=O)N[C@H](C(=O)O)Cc3ccc(cc3)OCc3cn2nn3)N(C(=O)[C@H](C)NC(=O)[C@H](C)NC)C1 [Compound 118] 7.00 to 7.30
